target: T1, INTS3CTD (C-terminal domain of INTS3, residues 572-978) (human, UniProt Q68E01 573-979); test: ITC (MicroCal iTC200, 16 °C, single-site model, two independent experiments)
T1 construct: also called INTS3CTD dimer
T1 sequence (Q68E01 573-979 limits assumed): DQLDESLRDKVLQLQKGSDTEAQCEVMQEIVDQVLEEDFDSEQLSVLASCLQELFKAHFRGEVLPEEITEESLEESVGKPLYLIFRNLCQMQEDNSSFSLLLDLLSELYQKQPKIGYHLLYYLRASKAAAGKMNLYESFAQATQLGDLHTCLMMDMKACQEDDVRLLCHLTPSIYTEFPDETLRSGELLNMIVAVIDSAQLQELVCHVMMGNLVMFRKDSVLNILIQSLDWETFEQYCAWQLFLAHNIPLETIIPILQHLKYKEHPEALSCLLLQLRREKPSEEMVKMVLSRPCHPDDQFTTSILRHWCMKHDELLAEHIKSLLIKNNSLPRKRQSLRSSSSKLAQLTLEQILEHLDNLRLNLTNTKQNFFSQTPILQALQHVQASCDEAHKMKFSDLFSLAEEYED
measurement name: Kd

Which Kd reading was recorded for the binder SAGE1I3BD (INTS3-binding domain of SAGE1, residues 818-904) (other, Expressed in E. coli with a His-SUMO or GST tag; also called SAGE1818-904; small C-terminal region of SAGE1) AMAKKINDDIKYQLMKEVRRFGQNYERIFILLEEVQGSMKVKRQFVEFTIKEAARFKKVVLIQQLEKALKEIDSHCHLRKVKHMRKR ?
~39 nM
